Molecular target: 3-hydroxy-3-methylglutaryl-coenzyme A reductase (Rattus norvegicus)
Sequence (P51639 whole entry): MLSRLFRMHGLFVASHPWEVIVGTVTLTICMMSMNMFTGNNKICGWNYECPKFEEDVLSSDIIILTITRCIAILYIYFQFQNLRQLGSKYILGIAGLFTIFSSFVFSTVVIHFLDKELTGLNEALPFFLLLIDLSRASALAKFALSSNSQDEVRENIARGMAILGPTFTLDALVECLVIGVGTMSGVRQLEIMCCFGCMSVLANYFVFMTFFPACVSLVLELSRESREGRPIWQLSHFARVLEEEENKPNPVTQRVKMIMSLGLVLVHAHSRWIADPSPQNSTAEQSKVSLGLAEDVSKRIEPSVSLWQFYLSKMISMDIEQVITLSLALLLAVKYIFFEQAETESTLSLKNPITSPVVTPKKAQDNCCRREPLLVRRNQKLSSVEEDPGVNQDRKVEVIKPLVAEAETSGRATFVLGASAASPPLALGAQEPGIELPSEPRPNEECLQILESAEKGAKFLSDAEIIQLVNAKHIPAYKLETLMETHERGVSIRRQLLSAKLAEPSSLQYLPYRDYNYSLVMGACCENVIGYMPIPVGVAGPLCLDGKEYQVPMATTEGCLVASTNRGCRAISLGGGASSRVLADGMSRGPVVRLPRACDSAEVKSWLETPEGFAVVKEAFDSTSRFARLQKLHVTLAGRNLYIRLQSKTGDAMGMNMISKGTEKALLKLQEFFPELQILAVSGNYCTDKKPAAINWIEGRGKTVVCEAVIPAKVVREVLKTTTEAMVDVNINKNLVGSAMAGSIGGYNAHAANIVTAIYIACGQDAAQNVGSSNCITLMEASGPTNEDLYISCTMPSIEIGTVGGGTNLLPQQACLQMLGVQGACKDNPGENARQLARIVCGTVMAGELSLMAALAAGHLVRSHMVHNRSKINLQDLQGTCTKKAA
pIC50: −log10 of the molar value.
MEASURE: pIC50

[a] O=C1C[C@H](O)CC(CC2c3cc(F)ccc3-c3cc(Cl)cc(Cl)c32)O1 (some centres not stated)
[b] Cc1cc(C)c2c(c1)-c1ccccc1/C2=C\[C@@H]1C[C@@H](O)CC(=O)O1
Compare pIC50: is it lower for a or for b ? Indicate your choice by writing its label.
b
(b: 6.12, a: 7.07)

* * *

Molecular target: UniProt P51639
Assay: Compound was tested for its ability to inhibit solubilized, purified rat liver HMG-CoA reductase, relative to compactin(100)
MEASURE: Relative potency

Record excerpt, results attached:
Find the recorded Relative potency belonging to O=C1C[C@H](O)C[C@@H](C=C2c3ccccc3-c3ccccc32)O1 and report it.
1.5

Would you mind telling me what Relative potency value was observed for Cc1cc(C)c2c(c1)-c1ccccc1/C2=C\[C@@H]1C[C@@H](O)CC(=O)O1 ?
1.9

[a] Cc1cc(C)c2c(c1)-c1cc(C)cc(C)c1C2=C[C@@H]1C[C@@H](O)CC(=O)O1
[b] O=C1C[C@H](O)CC(CC2c3cc(F)ccc3-c3cc(Cl)cc(Cl)c32)O1 (some centres undefined)
Compare the recorded Relative potency of a and b ; state which is larger. Field: selected label. Fill in the label of the entry you choose.
b
(b: 14, a: 1.7)

* * *

Target: 3-hydroxy-3-methylglutaryl-coenzyme A reductase (Rattus norvegicus) (UniProt P51639)
Test: compound was tested for its ability to inhibit solubilized, purified rat liver HMG-CoA reductase, relative to compactin(100)
MEASURE: Relative potency

Check out these entries, answers already filled in.
What does the data say about its Relative potency? Entry: O=C1C[C@H](O)C[C@@H](/C=C/c2c(Cl)cc(Cl)cc2-c2ccc(F)cc2)O1
100

Would you kindly share the measured Relative potency for Cc1cc(C)cc(-c2cc(C)cc(C)c2/C=C/[C@@H]2C[C@@H](O)CC(=O)O2)c1 ?
80

[P] O=C1C[C@H](O)C[C@@H](/C=C/c2c(Cl)cc(Cl)cc2-c2ccccc2)O1
[Q] O=C1C[C@H](O)C[C@@H](/C=C/c2ccccc2-c2ccccc2)O1
Looking only at measured Relative potency, which entry is lower, P or Q ? Record your answer as the label of the chosen record.
Q
